Test system: apomorphine-induced vomiting
Assay: Antagonistic effect on apomorphine-induced vomiting
Assay type: in vivo, dogs (Beagle)
Conditions: Canis lupus familiaris, sc; dose 3.0 mg/kg; apomorphine 0.3 mg/kg s.c. 2 h after compound; read-out: Inhibitory ratio (apomorphine-induced vomiting)
Description: A group of 3-4 dogs (Beagle, 8-15 kg) was used for examining effects on the test compounds on apomorphine-induced vomiting, a known test for evaluating neuroleptic drugs. Each dog was given a subcutaneous injection of apomorphine hydrochloride (0.3 mg/kg) two hours after the treatment of the test compounds. Then, the frequency of oral vomiting was counted for one hour. […]
Label 1 for high-side inhibition in vivo at 3 mg/kg (at or above 80%) and -1 for low-side inhibition in vivo at 3 mg/kg (below it).

Please check the record Cc1nc(N2CCN(c3ccccc3)CC2)cc(-c2ccc(O)cc2)c1-c1ccc(O)cc1 [Test Compound C, reference compound] and state if its inhibition in vivo at 3 mg/kg is at or above 80%.
-1

Given the entry COc1ccc(-c2cc(N3CCN(c4ccccc4)CC3)nc(C)c2-c2ccc(OC)cc2)cc1 [Test Compound B, reference compound] , answer whether its inhibition in vivo at 3 mg/kg meets or surpasses 80%.
-1

Entry CCN1CCN(c2cc(-c3ccc(F)cc3)c3c(n2)CCCC3)CC1 [Example 15] : is its inhibition in vivo at 3 mg/kg no less than 80%?
1

Does inhibition in vivo at 3 mg/kg meet or surpass 80% for CCN1CCN(c2cc(-c3ccccc3)c3c(n2)C2CCC3C2)CC1 (stereo not shown) [Example 71] ?
1

Hi, just wondering whether CCN1CCN(c2cc(-c3ccc(F)cc3)c3c(n2)CCCCC3)CC1 [Example 25] shows inhibition in vivo at 3 mg/kg of 80% or higher.
1

Please indicate if the recorded inhibition in vivo at 3 mg/kg for CCN1CCN(c2cc(-c3cccc(F)c3)c3c(n2)CCCCC3)CC1 [Example 27] meets or exceeds 80%.
-1

Form field: inhibition in vivo at 3 mg/kg at least 80%? Entry: CCN1CCN(c2cc(-c3ccccc3F)c3c(n2)CCCCC3)CC1 [Example 29]
-1

* * *

target: serotonin (S1) receptor; assay: In vitro binding to serotonin (S1) receptor, [3H] serotonin; settings: rat brain crude synaptosome fraction
Returns: string. Value is met if measured IC50 is below 2 µM, and not met if it is greater than or equal to it.

Please state whether IC50 is below 2 µM for "Fc1ccc(-c2cc(N3CCNCC3)nc3c2CCC3)cc1"
met

For "CCN1CCN(c2cc(-c3ccc(F)cc3)c3c(n2)CCCCC3)CC1" , is the recorded IC50 below the cut-off of 2 µM?
not met

Is it true that IC50 reported for "Fc1ccc(-c2cc(N3CCNCC3)nc3c2CCCCC3)cc1" is less than 2 µM?
not met

Take the molecule "CCN1CCN(c2cc(-c3ccc(F)cc3)c3c(n2)CCC3)CC1" and say whether its IC50 is less than 2 µM.
met

Is 2 µM strictly greater than the molecule's reported IC50? molecule: "c1ccc(-c2cc(N3CCNCC3)nc3c2CCCCC3)cc1"
not met

I'd appreciate it if you could check whether "CCN1CCN(c2cc(-c3ccc(F)cc3)c3c(n2)CCCC3)CC1" has IC50 smaller than 2 µM.
met

Report whether reported IC50 is lower than 2 µM (strictly) for "CCN1CCN(c2cc(-c3ccccc3)c3c(n2)CCCCC3)CC1"
not met

Could you please tell me whether IC50 recorded for "c1ccc(-c2cc(N3CCNCC3)nc3c2CCCC3)cc1" is less than 2 µM?
met

Report whether reported IC50 is lower than 2 µM (strictly) for "c1ccc(-c2cc(N3CCNCC3)nc3c2CCC3)cc1"
met

I wonder whether "Fc1ccc(-c2cc(N3CCNCC3)nc3c2CCCC3)cc1" has IC50 below 2 µM. Can you tell?
met

* * *

measurement_type: pIC50
Here pIC50 is given on a logarithmic scale as minus log10 of the concentration in mol/L.

Would you please give the reported pIC50 of "c1ccc(-c2cc(N3CCNCC3)nc3c2CCCCC3)cc1" with serotonin (S2) receptor (Rattus norvegicus)?
7.21

Report pIC50 under test system serotonin (S2) receptor (Rattus norvegicus) for "CCN1CCN(c2cc(-c3ccc(F)cc3)c3c(n2)CCCCC3)CC1" .
8.64

Recall the reported pIC50 of "CCN1CCN(c2cc(-c3ccc(F)cc3)c3c(n2)CCCC3)CC1" when tested on serotonin (S2) receptor (Rattus norvegicus).
Sequence (P14842 whole entry): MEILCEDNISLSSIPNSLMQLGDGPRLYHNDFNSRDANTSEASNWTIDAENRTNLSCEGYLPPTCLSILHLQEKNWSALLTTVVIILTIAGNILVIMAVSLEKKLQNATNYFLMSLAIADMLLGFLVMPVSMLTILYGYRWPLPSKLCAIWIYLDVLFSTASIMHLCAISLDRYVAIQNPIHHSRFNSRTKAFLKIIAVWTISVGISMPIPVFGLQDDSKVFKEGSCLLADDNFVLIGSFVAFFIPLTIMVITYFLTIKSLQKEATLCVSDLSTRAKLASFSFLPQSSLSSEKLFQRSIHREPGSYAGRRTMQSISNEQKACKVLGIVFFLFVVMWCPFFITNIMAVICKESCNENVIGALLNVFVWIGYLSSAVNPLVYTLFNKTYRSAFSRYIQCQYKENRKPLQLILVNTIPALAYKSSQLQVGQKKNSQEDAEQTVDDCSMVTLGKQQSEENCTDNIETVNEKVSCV
7.72

Output reported pIC50 of the compound "OCCN1CCN(c2cc(-c3ccc(F)cc3)c3c(n2)CCC3)CC1" on serotonin (S2) receptor (Rattus norvegicus).
8.02

Report pIC50 from serotonin (S2) receptor (Rattus norvegicus) testing of "c1ccc(-c2cc(N3CCNCC3)nc3c2CCCC3)cc1"
7.09

Under serotonin (S2) receptor (Rattus norvegicus), report pIC50 for "Fc1ccc(-c2cc(N3CCNCC3)nc3c2CCCC3)cc1"
7.57

Report its pIC50 with serotonin (S2) receptor (Rattus norvegicus) as the test system: CCN1CCN(c2cc(-c3ccc(F)cc3)c3c(n2)C2CCC3C2)CC1 (centres unmarked)
8.62

Look up and report measured pIC50 (serotonin (S2) receptor (Rattus norvegicus)) for the following compound: "CCN1CCN(c2cc(-c3ccc(F)cc3F)c3c(n2)CCCCCC3)CC1"
7.55

* * *

system: brain monoamine metabolites; assay: Increasing effect on concentration of brain monoamine metabolites; format: in vivo, mice (Std-ddy strain); details: Mus musculus; dose 2 mg/kg, 2 h; non-dosed=100; read-out: HVA concentration, % of control
measurement_type: response vs control in vivo at 2 mg/kg (%)
Give your result in % as a bare value.

Look up response vs control in vivo at 2 mg/kg of "CCN1CCN(c2cc(-c3ccc(F)cc3)c3c(n2)CCC(C)(C)C3)CC1" and report it.
308

Output response vs control in vivo at 2 mg/kg of CCN1CCN(c2cc(-c3ccc(F)cc3)c3c(n2)CCC(C)C3)CC1 (centres unmarked)
236

Please report the measured response vs control in vivo at 2 mg/kg for "OCCCN1CCN(c2cc(-c3ccc(F)cc3)c3c(n2)CCCCCC3)CC1"
173

Give the measured response vs control in vivo at 2 mg/kg for "CCCCN1CCN(c2cc(-c3ccc(F)cc3)c3c(n2)CCCCCC3)CC1"
229

Specify response vs control in vivo at 2 mg/kg for CCN1CCN(c2cc(-c3ccc(F)cc3)c3c(n2)CC(C)(C)CC3C)CC1 (centres unmarked) and stop.
181

Using the record for "CCN1CCN(c2cc(-c3ccc(F)cc3F)c3c(n2)CCCCCC3)CC1" , state its measured response vs control in vivo at 2 mg/kg.
271

Respond only with response vs control in vivo at 2 mg/kg recorded for "CCN1CCN(c2cc(-c3c(F)cccc3F)c3c(n2)CCCCCC3)CC1"
240

Give reported response vs control in vivo at 2 mg/kg value for "CCN1CCN(c2cc(-c3ccc(F)c(F)c3)c3c(n2)CCCCCC3)CC1"
250

* * *

I'd appreciate it if you could supply inhibition in vivo at 0.2 mg/kg values for the items below.
system: apomorphine-induced vomiting; experiment: Antagonistic effect on apomorphine-induced vomiting; format: in vivo, dogs (Beagle); settings: Canis lupus familiaris, sc; dose 0.2 mg/kg; apomorphine 0.3 mg/kg s.c. 2 h after compound; read-out: Inhibitory ratio (apomorphine-induced vomiting)
Please state the value followed by its unit.

Given "CCN1CCN(c2cc(-c3ccc(F)cc3)c3c(n2)CCCCCC3)CC1" , respond with its inhibition in vivo at 0.2 mg/kg.
100%

// fetch inhibition in vivo at 0.2 mg/kg given entry "CN1CCN(c2cc(-c3ccc(F)cc3F)c3c(n2)CCCCCC3)CC1"
89%

Tell me measured inhibition in vivo at 0.2 mg/kg for "CCN1CCN(c2cc(-c3ccc(F)cc3F)c3c(n2)CCCCCC3)CC1" please.
100%

Give the reported value of inhibition in vivo at 0.2 mg/kg for this record: CN1CCN(c2cc(-c3ccc(F)cc3)c3c(n2)CCCCCC3)CC1.O=C(O)/C=C\C(=O)O.O=C(O)/C=C\C(=O)O [Example 112, dimaleate]
94%

* * *

biological target: dopamine (D2) receptor (Rattus norvegicus, UniProt P61169); construct: Crude synaptosome fractions were prepared from some brain regions in rats for receptor sources; from tissue; assay: In vitro binding to dopamine (D2) receptor, [3H] spiperone; design: species or system rats; conditions: [3H] spiperone, rat brain crude synaptosome fraction; read-out: IC50 D2
Sequence (P61169 whole entry): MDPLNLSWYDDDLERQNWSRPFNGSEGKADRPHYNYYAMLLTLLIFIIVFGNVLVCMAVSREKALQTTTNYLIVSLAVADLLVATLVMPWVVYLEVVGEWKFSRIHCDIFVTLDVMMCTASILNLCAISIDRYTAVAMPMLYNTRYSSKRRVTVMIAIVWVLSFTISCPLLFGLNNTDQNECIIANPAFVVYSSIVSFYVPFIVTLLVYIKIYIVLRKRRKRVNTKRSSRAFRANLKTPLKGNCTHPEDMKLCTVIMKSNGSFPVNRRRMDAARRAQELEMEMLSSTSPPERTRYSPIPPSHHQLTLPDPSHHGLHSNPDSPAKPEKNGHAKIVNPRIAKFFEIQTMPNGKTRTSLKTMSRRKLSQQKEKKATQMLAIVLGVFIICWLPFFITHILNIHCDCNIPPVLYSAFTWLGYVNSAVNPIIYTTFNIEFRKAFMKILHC
measurement_type: log10(IC50) (log10 of the value in nM)
Please keep in mind that the values are log10 of IC50 expressed in nM.

Return value of log10(IC50) for input "c1ccc(-c2cc(N3CCNCC3)nc3c2CCC3)cc1" , no commentary.
2.43

Specify reported log10(IC50) for the compound shown: CCN1CCN(c2cc(-c3ccc(F)cc3)c3c(n2)CCCCCC3)CC1 [Example 1b]
1.66

Give log10(IC50) for CCN1CCN(c2cc(-c3ccccc3)c3c(n2)C2CCC3C2)CC1 (stereo not shown)
1.40

Provide one value: measured log10(IC50) of "c1ccc(-c2cc(N3CCNCC3)nc3c2CCCC3)cc1"
2.86

Indicate its recorded log10(IC50); the compound in question is "CCN1CCN(c2cc(-c3ccc(F)cc3)c3c(n2)CCCC3)CC1"
1.76

For the compound "CCN1CCN(c2cc(-c3ccc(F)cc3)c3c(n2)CCC3)CC1" , give its measured log10(IC50) value.
1.28

Using known records, supply log10(IC50) for "Fc1ccc(-c2cc(N3CCNCC3)nc3c2CCCCC3)cc1"
2.41

Supply reported log10(IC50) belonging to this compound: "c1ccc(-c2cc(N3CCNCC3)nc3c2CCCCCC3)cc1"
2.15

Item CCN1CCN(c2cc(-c3ccc(F)cc3)c3c(n2)C2CCC3C2)CC1 (stereo not shown) : provide log10(IC50)
1.26

Identify log10(IC50) associated with the compound "OCCN1CCN(c2cc(-c3ccc(F)cc3)c3c(n2)CCC3)CC1"
1.48

Specify log10(IC50) for "CCN1CCN(c2cc(-c3ccc(F)cc3)c3c(n2)CCCCC3)CC1" and stop.
1.89

Please give measured log10(IC50) of the following entry: "CCN1CCN(c2cc(-c3ccc(F)cc3F)c3c(n2)CCCCCC3)CC1"
1.38

Provide measured log10(IC50) value, entry: "CCN1CCN(c2cc(-c3ccccc3)c3c(n2)CCCCC3)CC1"
1.98

Let me know recorded log10(IC50) for "c1ccc(-c2cc(N3CCNCC3)nc3c2CCCCC3)cc1" , thanks.
2.82

Give me measured log10(IC50), please, for this compound: "Fc1ccc(-c2cc(N3CCNCC3)nc3c2CCCC3)cc1"
2.48

Tell me its log10(IC50) given CCN1CCN(c2cc(-c3ccc(F)cc3)c3c(n2)CCCCCC3)CC1 [Example 1a] as the entry.
1.38
